assay.summary: Neurotoxicity in ip dosed albino mouse during 1 min by rotarod test
Format: toxicity, organism-based
conditions.used: in vivo
measurement.label: TD50 at 1 min (µmol/kg)
Write the number in µmol/kg without appending the unit.

Request the reported TD50 at 1 min associated with "O=C(/C=C/c1ccc(O)cc1)Nc1nc2ccc([N+](=O)[O-])cc2s1" 602

Request the reported TD50 at 1 min associated with "O=C(/C=C/c1ccco1)Nc1nc2ccc([N+](=O)[O-])cc2s1" 834

Request the reported TD50 at 1 min associated with "Cc1ccc2nc(NC(=O)/C=C/c3ccccc3)sc2c1" 534

Request the reported TD50 at 1 min associated with COc1ccc(C2CC(Nc3nc4ccc(Cl)cc4s3)=NN2C(C)=O)cc1 (stereo not drawn) 187

Request the reported TD50 at 1 min associated with "COc1ccc(/C=C/C(=O)Nc2nc3ccccc3s2)cc1O" 556
